These entries and their values trace back to patent US20080107658A1.

target-desc: human nerve growth factor (beta-NGF) (human, UniProt P01138 122-241)
Sequence (P01138 122-241): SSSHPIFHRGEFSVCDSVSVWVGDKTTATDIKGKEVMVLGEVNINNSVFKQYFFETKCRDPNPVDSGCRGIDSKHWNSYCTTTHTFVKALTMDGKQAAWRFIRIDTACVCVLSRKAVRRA
protocol-text: cell-based or functional assay
quantity-measured: IC50, calcium mobilisation assay (nM)
The reply should contain only the number, in nM.

INSERT INTO measurements (binder, quantity_measured, measured) VALUES
  ('1022E3 human IgG4 (antibody, V domains shown) VH: QVQLVQSGAEVKKPGASVKVSCKASGYSFINYSMHWVRQAPGQGLEWIGIINPGGDSTKYTQRFQDRVTMTWDTSTSTVYMDLSSLRSEDTAIYYCARGLHPIPMMLATINPIFAYWGQGTLVTVSS VL: SSELTQDPAVSVALGQTVRITCRGDSLRNYYANWYQQKPGQAPVLVIYDENKRPSGIPDRFSGSGSGNTASLTITGAQAEDEADYFCNSRDTFGYVRDVLFGGGTKVTVL', 'IC50, calcium mobilisation assay', 18);

Consider the additional binder presented here.
*Q* Let me know recorded IC50, calcium mobilisation assay for 1083H4 human IgG4 (antibody, V domains shown) VH: QMQLVQSGAEVKKTGSSVKVSCKASGYTFAYHYLHWVRQAPGQGLEWMGGIIPIFGTTNYAQRFQDRVTITADESTSTAYMELSSLRSEDTAVYYCASADYVWGSYRPDWYFDLWGRGTMVTVSS VL: QSVLTQPPSASGTPGQRVTISCSGSSSNIGSNTVNWYQRLPGAAPQLLIYNNDQRPSGIPDRFSGSKSGTSGSLVISGLQSEDEADYYCASWDDSLNGRVFGGGTKLTVL , thanks.
*A* 30
